Hey, just so you know, these numbers are from patent US20260053792A1.

- test: Tissue distribution of compound A26 in mice (plasma / cerebrospinal fluid drug concentration)
- Format: in vivo
- run.conditions: mouse, plasma, PO 20 mg/kg, 30 min, read-out: Cardiac plasma

# molecule, measure.unit, concentration at 30 min
rows = [
    ("COc1cc2c(cc1OC)C(CCc1c[nH]c3ccccc13)N(CC1CCOCC1)CC2 (stereo not shown)", "ng/mL", 20.7),
]

---

- test: Tissue distribution of compound A26 in mice (plasma / cerebrospinal fluid drug concentration)
- Format: in vivo
- run.conditions: mouse, cerebrospinal fluid, IV 5 mg/kg, 15 min, read-out: cerebrospinal fluid
measured.metric: concentration at 15 min (ng/g)

# compound, measure.unit, numeric.result
rows = [
    ("COc1cc2c(cc1OC)C(CCc1c[nH]c3ccccc13)N(CC1CCOCC1)CC2 (stereo not shown) [Compound A26]", "ng/g", 1560),
]

---

- test: Tissue distribution of compound A26 in mice (plasma / cerebrospinal fluid drug concentration)
- Assay type: in vivo
- run.conditions: mouse, cerebrospinal fluid, IP 10 mg/kg, 15 min, read-out: cerebrospinal fluid

# compound, concentration at 15 min
records = [
    ("COc1cc2c(cc1OC)C(CCc1c[nH]c3ccccc13)N(CC1CCOCC1)CC2 (stereo not shown) [Compound A26]", "665 ng/g"),
]

---

- test: Tissue distribution of compound A26 in mice (plasma / cerebrospinal fluid drug concentration)
- Assay type: in vivo
- run.conditions: mouse, brain/plasma, IP 10 mg/kg, 30 min, read-out: Brain to plasma drug concentration ratio (Cbrain/Cplasma)

# compound, Kp at 0.5 h
measured = [
    ("COc1cc2c(cc1OC)C(CCc1c[nH]c3ccccc13)N(CC1CCOCC1)CC2 (stereo not shown) [Compound A26]", 1.91),
]

---

- test: Tissue distribution of compound A26 in mice (plasma / cerebrospinal fluid drug concentration)
- Format: in vivo
- run.conditions: mouse, plasma, PO 20 mg/kg, 15 min, read-out: Cardiac plasma
measured.metric: concentration at 15 min (ng/mL)

# compound, numeric.result
measured = [
    ("COc1cc2c(cc1OC)C(CCc1c[nH]c3ccccc13)N(CC1CCOCC1)CC2 (stereo not shown)", 65.3),
]

---

- test: Tissue distribution of compound A26 in mice (plasma / cerebrospinal fluid drug concentration)
- Assay type: in vivo
- run.conditions: mouse, cerebrospinal fluid, PO 20 mg/kg, 15 min, read-out: cerebrospinal fluid
measured.metric: concentration at 15 min

# compound, measured.metric, result
rows = [
    ("COc1cc2c(cc1OC)C(CCc1c[nH]c3ccccc13)N(CC1CCOCC1)CC2 (stereo not shown) [Compound A26]", "concentration at 15 min", "224 ng/g"),
]
